- TEST_SUMMARY: NCI Yeast Anticancer Drug Screen. Data for the bub3 strain (AID 167)
- CONDITION_NOTES: S. cerevisiae bub3 mutant strain, at 5.0 µM (retest, dose inferred, filed as 0.5), active compounds read high
Compounds without any hit were thinned out: in the full panel of roughly 79,000, 15% have a hit. Calls of active or inactive are those of the source. Cut-off read from the data, not from the text of the source: active = growth inhibition above about 70%; inactive = the rest.
READOUT: growth inhibition

INSERT INTO measurements (molecule, reported_measurement) VALUES
  ('Cc1cc(N(CCCl)CCCl)ccc1CN1CCCN(Cc2ccc(N(CCCl)CCCl)cc2C)C1c1ccc(N(CCCl)CCCl)cc1', '5% (inactive)'),
  ('O=S(O)O.O=S(O)O.[Co].[NH2-].[NH2-].[NH2-].[NH2-]', '12% (inactive)'),
  ('Nc1nc(N)c(-c2ccc(Cl)c(Cl)c2)c(COc2ccc(CNC(=O)Nc3cccc(S(=O)(=O)F)c3)cc2Cl)n1', '0% (inactive)'),
  ('[C-]#[O+].[C-]#[O+].[C-]#[O+].[C-]#[O+].[Mo].c1cnc2c(c1)ccc1cccnc12', '-1% (inactive)'),
  ('O=C(N/N=C/c1cc(Br)cc(Br)c1[O-])c1ccccc1O.O=C(N/N=C/c1cc(Br)cc(Br)c1[O-])c1ccccc1O.[Ni+2]', '96% (active)'),
  ('Cc1c2ccncc2c(CN(CCCl)CCCl)c2c3ccccc3n(C)c12', '-10% (inactive)'),
  ('CN1CCN(c2ccc3nc(-c4ccc5nc(-c6ccc(N(C)CCCl)cc6)[nH]c5c4)[nH]c3c2)CC1', '-18% (inactive)'),
  ('S=C=NCCc1ccccc1', '5% (inactive)'),
  ('Sc1nc2ccccc2s1.Sc1nc2ccccc2s1.Sc1nc2ccccc2s1.Sc1nc2ccccc2s1.[Cl][Rh][Cl]', '31% (inactive)'),
  ('Cc1cc(CCN)c(C)c2c1oc1ccccc12', '-22% (inactive)'),
  ('CN(Cc1ccccc1)CC(O)c1cccc(I)c1 (centres undefined)', '0% (inactive)'),
  ('CCC[CH2][Sn]1([CH2]CCC)[O]CCN2CCN(CC[O]1)CC2', '-2% (inactive)'),
  ('CCOC(=O)C(c1ccsc1)P(=O)(OCC)OCC (centres undefined)', '8% (inactive)'),
  ('O=[N+]([O-])/C=C/c1c(Cl)cccc1Cl', '100% (active)');

Provenance of the data: PubChem BioAssay (NCI)
